- TARGET_DESC: T1, KAE1;BUD32;CGI121;PCC1 (Arabidopsis thaliana;Arabidopsis …, UniProt O49653;Q94K14;Q6NMZ4;Q8GWD7 1-353;1-226;1-172;1-96, |||)
- T1 sequence 1: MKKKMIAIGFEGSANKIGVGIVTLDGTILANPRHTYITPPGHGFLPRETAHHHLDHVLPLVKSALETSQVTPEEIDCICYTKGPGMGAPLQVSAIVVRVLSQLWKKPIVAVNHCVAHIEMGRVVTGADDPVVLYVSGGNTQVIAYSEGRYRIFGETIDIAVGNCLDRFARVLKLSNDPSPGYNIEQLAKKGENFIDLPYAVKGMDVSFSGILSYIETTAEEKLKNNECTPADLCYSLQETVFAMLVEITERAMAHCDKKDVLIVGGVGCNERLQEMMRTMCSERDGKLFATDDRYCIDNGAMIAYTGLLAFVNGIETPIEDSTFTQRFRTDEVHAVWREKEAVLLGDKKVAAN
- T1 sequence 2: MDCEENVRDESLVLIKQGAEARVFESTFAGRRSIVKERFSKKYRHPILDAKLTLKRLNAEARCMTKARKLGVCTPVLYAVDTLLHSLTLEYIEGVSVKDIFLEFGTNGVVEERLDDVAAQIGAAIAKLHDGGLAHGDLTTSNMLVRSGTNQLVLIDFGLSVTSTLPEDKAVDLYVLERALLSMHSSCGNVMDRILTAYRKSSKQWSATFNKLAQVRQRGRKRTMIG
- T1 sequence 3: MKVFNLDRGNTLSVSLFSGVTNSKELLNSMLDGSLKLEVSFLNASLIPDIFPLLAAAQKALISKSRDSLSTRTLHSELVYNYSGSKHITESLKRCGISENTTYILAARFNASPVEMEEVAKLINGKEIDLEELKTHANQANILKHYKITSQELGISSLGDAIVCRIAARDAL
- T1 sequence 4: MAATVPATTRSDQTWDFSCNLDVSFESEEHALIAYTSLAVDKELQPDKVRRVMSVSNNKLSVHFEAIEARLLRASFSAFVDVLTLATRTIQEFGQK
- TEST_METHOD_NOTES: EMSA; 20 uM each; MST: 20 mM PBS pH 7.5, 300 mM NaCl, 0.05% Tween 20, 25 C, 50 nM RNA; EMSA: 20 mM Tris-HCl pH 7.5, 300 mM NaCl, 5 mM b-mercaptoethanol, 20% glycerol, agarose gel in Tris-glycine pH 8.0 (8.5 for FAM-RNA), 4 C
- MEASUREMENT_PARAMETERS: protein: recombinant;recombinant;recombinant;recombinant; tags: none (6His on partner PCC1);none (6His on partner CGI121);6His (C-term);6His (C-term); chain copies: 2;2;2;2; tRNA cloverleaf
MEASURED_QUANTITY: binding result

tRNAIleAAU (structured_RNA) RNA: GGCCUAUUAGCUCAGUUGGUUAGAGCGUCGUGCUAAUAACGCGAAGGUCACAGGUUCGAUCCCUGUAUAGGCCACCA :: binds
tRNALysUUU (structured_RNA) RNA: GCCGUCUUAGCUCAGCGGUAGAGCGCGUGGCUUUUAACCACGUGGCCGUGGGUUCGAUCCCCACAGACGGCGCCA :: binds
tRNAArgUCU (structured_RNA) RNA: GCGCCCGUGGCCUAAUGGAUAAGGCGUUUGACUUCUAAUCAAACGAUUGUGGGUUCGAGUCCCACCGGGCGUGCCA :: binds
tRNAIleUAU (structured_RNA) RNA: GCUCCCGUAGCUCAGUUGGUUAGAGCGUUGGUCUUAUGAGCCGAAGGUCGCGGGUUCGAGCCCCGCCGGAAGCACCA :: binds
